# TARGET SYSTEM: human ether-à-go-go-related gene (hERG) potassium channel (human)
# Sequence (Q12809 whole entry, looked up): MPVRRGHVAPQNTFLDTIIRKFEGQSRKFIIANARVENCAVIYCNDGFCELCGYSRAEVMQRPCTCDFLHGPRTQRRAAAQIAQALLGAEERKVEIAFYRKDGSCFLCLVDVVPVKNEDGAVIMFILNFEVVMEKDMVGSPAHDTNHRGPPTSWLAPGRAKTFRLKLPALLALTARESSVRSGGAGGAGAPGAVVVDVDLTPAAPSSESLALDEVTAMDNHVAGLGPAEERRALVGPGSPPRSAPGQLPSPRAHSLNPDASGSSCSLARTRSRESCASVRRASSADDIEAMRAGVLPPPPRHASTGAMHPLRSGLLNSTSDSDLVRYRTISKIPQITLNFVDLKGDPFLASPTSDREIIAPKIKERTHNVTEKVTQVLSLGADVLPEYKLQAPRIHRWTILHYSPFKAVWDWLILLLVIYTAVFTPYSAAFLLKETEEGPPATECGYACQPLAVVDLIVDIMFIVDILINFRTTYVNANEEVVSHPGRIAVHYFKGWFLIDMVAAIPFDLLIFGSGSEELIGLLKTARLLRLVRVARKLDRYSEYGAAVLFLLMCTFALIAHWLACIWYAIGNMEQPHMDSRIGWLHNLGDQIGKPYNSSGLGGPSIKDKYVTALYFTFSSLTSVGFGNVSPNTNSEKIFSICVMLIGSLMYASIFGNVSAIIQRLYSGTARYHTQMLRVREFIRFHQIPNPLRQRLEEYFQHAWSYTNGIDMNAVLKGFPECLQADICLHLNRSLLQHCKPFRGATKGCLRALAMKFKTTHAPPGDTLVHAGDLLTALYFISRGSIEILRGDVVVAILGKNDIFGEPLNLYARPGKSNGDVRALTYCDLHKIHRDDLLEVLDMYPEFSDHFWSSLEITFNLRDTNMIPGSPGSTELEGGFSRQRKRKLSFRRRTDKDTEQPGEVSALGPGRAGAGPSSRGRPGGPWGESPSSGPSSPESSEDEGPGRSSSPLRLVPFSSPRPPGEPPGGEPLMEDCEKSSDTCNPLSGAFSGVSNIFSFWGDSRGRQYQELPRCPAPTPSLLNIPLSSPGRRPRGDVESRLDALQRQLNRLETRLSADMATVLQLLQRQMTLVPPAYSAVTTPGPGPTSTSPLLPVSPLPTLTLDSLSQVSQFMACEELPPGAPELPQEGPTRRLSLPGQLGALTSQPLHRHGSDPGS
# MEASUREMENT NOTES: primary screen, population patch clamp on CHO cells stably expressing hERG; higher = less effect of the substance
Hit rate of the full screen: of about 310,000 compounds, about 14,000 (4.5%) showed an effect of 50% or more. The effect is printed as a negative number. What follows is part of a selection rich in strong results, with near analogues and random picks from the rest.
TEST READOUT: hERG current change (%, negative = inhibition) at 10uM (%)
Response body: numeric value in %, unit text excluded.

# value lookup — system human ether-à-go-go-related gene (hERG) potassium channel (human), readout hERG current change (%, negative = inhibition) at 10uM, item COC(=O)c1sc(NC(=O)COc2ccc(OC)cc2)nc1C
6.37

# value lookup — system human ether-à-go-go-related gene (hERG) potassium channel (human), readout hERG current change (%, negative = inhibition) at 10uM, item O=[N+]([O-])c1cccc(C2N3CCCN23)c1 (stereo not shown)
12.3

# value lookup — system human ether-à-go-go-related gene (hERG) potassium channel (human), readout hERG current change (%, negative = inhibition) at 10uM, item COc1ccc(S(=O)(=O)N2CCCC(C(F)(F)F)C2)cc1 (stereo not shown)
10.2

# value lookup — system human ether-à-go-go-related gene (hERG) potassium channel (human), readout hERG current change (%, negative = inhibition) at 10uM, item O=[N+]([O-])c1cccc(CSC2=NCCN2S(=O)(=O)c2ccccc2)c1
-6.78

# value lookup — system human ether-à-go-go-related gene (hERG) potassium channel (human), readout hERG current change (%, negative = inhibition) at 10uM, item CC(C(=O)O)n1cc(Cl)cn1 (stereo not shown)
8.82

# value lookup — system human ether-à-go-go-related gene (hERG) potassium channel (human), readout hERG current change (%, negative = inhibition) at 10uM, item COc1cccc(CN2CCNC(=O)C2CC(=O)NCCCn2ccnc2)c1 (stereo not shown)
37.2

# value lookup — system human ether-à-go-go-related gene (hERG) potassium channel (human), readout hERG current change (%, negative = inhibition) at 10uM, item COc1ccc(N(C)S(=O)(=O)c2ccc3c(c2)CCC(=O)N3)cc1;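 further: peak tail current of the secondary pulse compared with the same well before compound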
-9.5

# value lookup — system human ether-à-go-go-related gene (hERG) potassium channel (human), readout hERG current change (%, negative = inhibition) at 10uM, item COc1cc(C(=O)N2CCN(C3CCC(C)CC3)CC2)cc(OC)c1OC.O=C(O)C(=O)O (stereo not shown);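 further: peak tail current of the secondary pulse compared with the same well before compound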
8.29

# value lookup — system human ether-à-go-go-related gene (hERG) potassium channel (human), readout hERG current change (%, negative = inhibition) at 10uM, item COc1ccc(Nc2nc3ccccc3n3nnnc23)cc1;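 further: peak tail current of the secondary pulse compared with the same well before compound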
-7.93

# value lookup — system human ether-à-go-go-related gene (hERG) potassium channel (human), readout hERG current change (%, negative = inhibition) at 10uM, item COc1ccccc1C(=O)NC(=S)Nc1ccc(N2CCOCC2)c(Cl)c1;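 further: peak tail current of the secondary pulse compared with the same well before compound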
13.1
